- Tested on: 186277-243-T-J2-PDC complex spheroid viability;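 note: spheroids exposed to compounds for seven days; 100% = DMSO vehicle control viability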
- measurement_protocol: Anticancer human tumor 186277-243-T-J2-PDC patient-derived colon adenocarcinoma cell line growth inhibition [POLQ]
- particulars: second compound 0.316 µM; first compound 3.16 µM; stronger effect = lower value
measured_parameter: viability, T/C (%)
Answer format: numeric, % implied, no suffix.

Req: Lookup: viability, T/C / 186277-243-T-J2-PDC complex spheroid viability / C#Cc1c(F)ccc2cc(O)cc(-c3ncc4c(N5CC6CCC(C5)N6)nc(OCC56CCCN5CC(F)C6)nc4c3F)c12 (stereo unspecified) + Nc1ccc(C#CCN(C(=O)Cc2ncc(C(F)(F)F)cc2C(F)(F)F)c2ccc(F)cc2)nn1
Resp: 16.1

Req: Lab note: need viability, T/C for O=C(Nc1ccc(O)c(NS(=O)(=O)c2ccc(F)cc2)c1)c1ccc(-c2ccccc2)cc1 + Cc1cccc(N(C)C(=O)C2C(O)CCN2c2nc(C)cc(C(F)(F)F)c2C#N)c1 on 186277-243-T-J2-PDC complex spheroid viability, anyone have it?
Resp: 102

Req: Return viability, T/C measured with 186277-243-T-J2-PDC complex spheroid viability given this compound: C=CC(=O)N1CCN(c2nc(=O)n(-c3c(C)ccnc3C(C)C)c3nc(-c4c(O)cccc4F)c(F)cc23)C(C)C1 (stereo unspecified) + Cc1cccc(N(C)C(=O)C2C(O)CCN2c2nc(C)cc(C(F)(F)F)c2C#N)c1
Resp: 112

Req: What reported viability, T/C corresponds to COc1ccc([C@@H](O)c2cc(-c3ncnc4cc(N5CCOCC5)ccc34)c(F)cc2Cl)nn1 + Cc1cccc(N(C)C(=O)C2C(O)CCN2c2nc(C)cc(C(F)(F)F)c2C#N)c1 on 186277-243-T-J2-PDC complex spheroid viability?
Resp: 86.2

Req: 186277-243-T-J2-PDC complex spheroid viability / viability, T/C / CCCS(=O)(=O)Nc1ccc(F)c(C(=O)c2c[nH]c3ncc(-c4ccc(Cl)cc4)cc23)c1F + Nc1ccc(C#CCN(C(=O)Cc2ncc(C(F)(F)F)cc2C(F)(F)F)c2ccc(F)cc2)nn1 : value?
Resp: 85.8

Req: Given the entry O=c1[nH]cc(F)c(=O)[nH]1 + Nc1ccc(C#CCN(C(=O)Cc2ncc(C(F)(F)F)cc2C(F)(F)F)c2ccc(F)cc2)nn1 , what viability, T/C was observed with 186277-243-T-J2-PDC complex spheroid viability?
Resp: 97.3

Req: For 186277-243-T-J2-PDC complex spheroid viability, provide viability, T/C of CCCS(=O)(=O)Nc1ccc(F)c(C(=O)c2c[nH]c3ncc(-c4ccc(Cl)cc4)cc23)c1F + Cc1cccc(N(C)C(=O)C2C(O)CCN2c2nc(C)cc(C(F)(F)F)c2C#N)c1 please.
Resp: 77.8

Req: Look up viability, T/C with 186277-243-T-J2-PDC complex spheroid viability for this compound: CCc1cc2c(N3CCc4c(cc(Cn5ccnc5)cc4-c4cn(C)nc4C(F)(F)F)C3=O)ccnc2c(OC)n1 + Cc1cccc(N(C)C(=O)C2C(O)CCN2c2nc(C)cc(C(F)(F)F)c2C#N)c1
Resp: 109

Req: Hello, I am looking for reported viability, T/C with 186277-243-T-J2-PDC complex spheroid viability for O=C(c1cc(Cc2n[nH]c(=O)c3ccccc23)ccc1F)N1CCN(C(=O)C2CC2)CC1 + Nc1ccc(C#CCN(C(=O)Cc2ncc(C(F)(F)F)cc2C(F)(F)F)c2ccc(F)cc2)nn1 . Could you help?
Resp: 102

Req: Look up viability, T/C with 186277-243-T-J2-PDC complex spheroid viability for this compound: O=C(c1cc(Cc2n[nH]c(=O)c3ccccc23)ccc1F)N1CCN(C(=O)C2CC2)CC1 + COC1C(OC(N)=O)C(O)C(Oc2ccc3c(O)c(NC(=O)c4ccc(O)c(CC=C(C)C)c4)c(=O)oc3c2C)OC1(C)C
Resp: 109

Req: Requested read-out viability, T/C, target or system 186277-243-T-J2-PDC complex spheroid viability, entry CC1COCCN1c1cc(C2(O)CC3CCC(C2)O3)c2cnn(-c3ccn[nH]3)c2n1 (stereo unspecified) + Nc1ccc(C#CCN(C(=O)Cc2ncc(C(F)(F)F)cc2C(F)(F)F)c2ccc(F)cc2)nn1;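 note: spheroids exposed to compounds for seven days; 100% = DMSO vehicle control viability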
Resp: 8.36
